Entries and their pKi values follow.
measurement notes: Displacement of [3H]epibatidine from alpha4beta2* nAChR in Sprague-Dawley rat brain P2 membrane after 90 mins by liquid scintillation counting
Assay type: tissue-based
pKi: −log10 of the molar value.

// known answers, use as guide
>>> assay_value("CCCCCCCCCCn1cc(CN(C)C)c2ccccc21")
"< 5.00"
>>> assay_value("Cn1cc(CC[N+](C)(C)C)c2ccccc21")
"< 5.00"
>>> assay_value("CC(C)=CCn1cc(CN(C)C)c2ccc(Br)cc21")
5.86
>>> assay_value("CC(C)=CCn1cc(CN(C)C)c2ccccc21")
"< 5.00"

Query block: Param item = C=CCn1cc(CCN(C)C)c2ccccc21 ; retrieve measured pKi.
Result block: < 5.00

Query block: // returns reported pKi for input CCCCCCCCCCCCn1cc(CC[N+](C)(C)C)c2ccccc21
Result block: < 5.00

Query block: Which pKi is listed for CCCCCCCCCCCCn1cc(CCCN(C)C)c2ccccc21 ?
Result block: < 5.00

Query block: Entry CCCCCCCCCCn1cc(CCCN(C)C)c2ccccc21 has what pKi?
Result block: < 5.00

Query block: Fill blank: measured pKi of the compound C=CCn1cc(CCNC)c2ccccc21 is ____.
Result block: < 5.00

Query block: Need pKi of CN1CCC[C@H]1c1cccnc1 , thanks.
Result block: 9.07

Query block: Which pKi value belongs to CCCCCCCCCCCCn1cc(C[N+](C)(C)C)c2ccccc21 ?
Result block: < 5.00

Query block: Need pKi, item CCCCCCCCn1cc(CN(C)C)c2ccccc21
Result block: < 5.00

Query block: What measured pKi goes with CCCCCCCCCCn1cc(CCN(C)C)c2ccccc21 ?
Result block: < 5.00
